Molecular target: KCNQ2/3 channels (Homo sapiens, UniProt O43525+O43526)
Construct: expressed in transfected cells
Test: Fluorescence assay using a voltage sensitive dye (fluorimetry)
Assay type: cell-based
Settings: CHO-K1 cells expressing KCNQ2/3 channels; retigabine 50 μM = 100%; read-out: Fluorimetry % efficacy (retigabine 50 μM = 100%)
property label: Emax (%)

>  <compound>
O=C(NCC1CCCCCC1)c1cccnc1SCCCc1ccc(F)cc1

>  <experimental result>
159

$$$$
>  <compound>
O=C(NCc1cc(F)cc(F)c1)c1cccnc1SCCCc1ccc(F)cc1

>  <experimental result>
78

$$$$
>  <compound>
O=C(NCC1CCCCCC1)c1cccnc1SCCC(F)(F)c1ccc(F)cc1

>  <experimental result>
160

$$$$
>  <compound>
O=C(NCc1ccc(F)cc1)c1cccnc1SCCC(F)(F)c1cccc(C(F)(F)F)c1

>  <experimental result>
119

$$$$
>  <compound>
O=C(NCC1CCOC1)c1cccnc1SCCC(F)(F)c1ccc(F)cc1 (centres unmarked)

>  <experimental result>
231

$$$$
>  <compound>
O=C(NCc1ccc(F)c(F)c1)c1cccnc1SCCCc1ccc(F)cc1

>  <experimental result>
107

$$$$
>  <compound>
O=C(NCC1CC2CCC1C2)c1cccnc1CCCCc1cccc(C(F)(F)F)c1 (centres unmarked)

>  <experimental result>
244

$$$$
>  <compound>
CCCNC(=O)c1cccnc1SCCC(F)(F)c1ccc(F)cc1

>  <experimental result>
212

$$$$
>  <compound>
O=C(O)CCNC(=O)c1cccnc1SCCC(F)(F)c1ccc(F)cc1

>  <experimental result>
128

$$$$
>  <compound>
CC(C)CCNC(=O)c1cccnc1SC(C)CCc1ccc(F)c(F)c1 (centres unmarked)

>  <experimental result>
230

$$$$
>  <compound>
O=C(NCc1ccc(F)cc1)c1cccnc1SCCCc1ccc(F)cc1

>  <experimental result>
97

$$$$
>  <compound>
O=C(NCC1C2CCC1CC2)c1cccnc1SCCC(F)(F)c1ccc(F)c(F)c1 (centres unmarked)

>  <experimental result>
276

$$$$
>  <compound>
CC(CCc1ccc(F)cc1)Sc1ncccc1C(=O)NCC1C2CCC1CC2 (centres unmarked)

>  <experimental result>
270

$$$$
>  <compound>
CC(CSc1ncccc1C(=O)NCc1cccs1)Sc1cccc(C(F)(F)F)c1 (centres unmarked)

>  <experimental result>
174

$$$$

====

Target: KCNQ2/3 channels (Homo sapiens, UniProt O43525+O43526)
Construct: expressed in transfected cells
Experiment: Fluorescence assay using a voltage sensitive dye (fluorimetry)
Format: cell-based
Conditions: CHO-K1 cells expressing KCNQ2/3 channels; retigabine 50 μM = 100%; read-out: Fluorimetry % efficacy (retigabine 50 μM = 100%)
property label: Emax (%)

>  <compound>
CC(CCc1cccc(F)c1)Sc1ncccc1C(=O)NCc1ccc(F)cc1 (centres unmarked)

>  <unit name>
%

>  <experimental result>
128

$$$$
>  <compound>
O=C(NCc1ccc(F)cc1O)c1cccnc1SCCCc1ccc(F)cc1

>  <unit name>
%

>  <experimental result>
185

$$$$
>  <compound>
CC(CSc1ncccc1C(=O)NCc1cccs1)Sc1ccccc1 (centres unmarked)

>  <unit name>
%

>  <experimental result>
176

$$$$
>  <compound>
O=C(NCC1CCCCCC1)c1cccnc1CCCSc1ccc(F)cc1

>  <unit name>
%

>  <experimental result>
159

$$$$
>  <compound>
O=C(NCc1cccs1)c1cccnc1CCCCc1ccccc1

>  <unit name>
%

>  <experimental result>
91

$$$$

Reference for the values: patent US8586755B2
